Below is a list of entries, each paired with its recorded TGI value.
Test system: SNB-19 CNS
protocol_details: NCI tumour cell line growth inhibition, 48 h
Report only the number, with the unit µM understood.

Asked: Dear colleague, I am looking for the recorded TGI of the following compound: Cc1ccc(C2(c3ccc(F)cc3)OC(=O)c3ccccc32)c(O)c1 (stereo not drawn)
Given back: 38.1

Asked: # lookup: TGI of CC1OC2OC3C(OCC(O)C3O)OC(=O)[C@]34CCC(C)(C)CC3C3=CCC5[C@@]6(C)C[C@H](O)[C@H](OC7OC(CO)C(O)C(O)C7OC7OCC(OC(=O)CC(C)(O)CC(=O)OC1C(O)C2O)C(O)C7O)[C@@](C)(CO)C6CC[C@@]5(C)[C@]3(C)CC4 (stereo partly drawn)
Given back: 21.3

Asked: For the compound Cc1nc2sc(C(=O)c3ccc(Cl)cc3)c(N)c2c(-c2ccccc2Cl)c1C(=O)Nc1ccccc1 , what TGI is on record?
Given back: 71.2

Asked: For CCSC[C@@H]1C[C@](O)(c2ccc(F)cc2)[C@@H](c2ccc(F)cc2)O1 , what is its reported TGI?
Given back: 31.1

Asked: Tell me the measured TGI of O=[N+]([O-])c1cc([N+](=O)[O-])c(Cl)cc1Cl , please.
Given back: 3.66

---

Reported TGI values for the following compounds.
Tested on: A549 NSCLC
protocol_details: NCI tumour cell line growth inhibition, 48 h

1) COCCOCCOCCOc1cccc2c1C(=O)c1cccc(OCCOCCOCCOC)c1C2=O > 100 µM
2) O=[N+]([O-])c1cc([N+](=O)[O-])c(Cl)cc1Cl 3.27 µM

Alright, here's another compound for you.
Asked: # TGI lookup, item NC(=S)N1N=C2c3ccccc3CC[C@H]2[C@@H]1c1ccc(Cl)cc1
Given back: > 100 µM

---

# TGI per record follows
Tested on: SK-MEL-5 melanoma
protocol_details: NCI tumour cell line growth inhibition, 48 h

compound	assay_readout	endpoint_value
C[C@]12CC(c3ccccc3O1)C(C(=O)Nc1nc(C34CC5CC(CC(C5)C3)C4)cs1)C(=O)N2 (stereo not given in full)	TGI	> 100 µM
CCN1C(=NCCO)NS(=O)(=O)c2ccccc21	TGI	> 100 µM
CC1SC2(CCCCC2)N(NC(=O)c2[nH]c3ccc(Br)cc3c2-c2ccccc2)C1=O (stereo not given)	TGI	> 100 µM
O=Cc1ccc(-c2ccc(-c3nc4ccccc4s3)cc2)s1	TGI	> 100 µM
CN(C)c1cccc(F)c1C(=O)NC(=O)Nc1ccc(Cl)cc1	TGI	> 100 µM

For the next question, use this compound.
Asked: Quick check: TGI on SK-MEL-5 melanoma, item CCC1(CN(C)C)CC/C(=C\c2ccc(OC)c(OC)c2)C1=O (stereo not given) ?
Given back: > 100 µM

---

System: A549 NSCLC
protocol_details: NCI tumour cell line growth inhibition, 48 h
TGI values by entry

Use these answered entries as a reference point.
compound	endpoint_value
COC(=O)[C@H](Cc1cn(C)cn1)NC(=O)[C@H](C)NC(=O)Nc1cc(C(F)(F)F)cc(C(F)(F)F)c1	> 10 µM
CN(CCCCCl)P(=O)(OCc1ccc([N+](=O)[O-])o1)OCC1OC(n2cnc([N+](=O)[O-])c2N)C(O)C1O (stereo not drawn)	> 100 µM
COc1cccc(N2C(=O)C3C4C=C5c6ccccc6N(c6ccccc6)C5(C3C2=O)[C@H]2C(=O)N(c3cccc(OC)c3)C(=O)[C@@H]42)c1 (stereo partly drawn)	> 100 µM

Asked: Sample Cc1[nH]c2cc(F)ccc2c1-c1nc2c3cccnc3c3ncccc3c2[nH]1 — what was its TGI?
Given back: 2.35 µM

Asked: Looking for the measured TGI of CC(=O)OC1[C@H](OC(C)=O)C2=C(C)[C@@H](OC(C)=O)C[C@@]2(C(C)(C)O)[C@@H](OC(C)=O)[C@H]2[C@@]1(C)[C@@H](OC(C)=O)CC(OC(C)=O)[C@]21CO1 (stereo partly drawn) , can you help?
Given back: > 100 µM

Asked: # TGI lookup, item COc1ccc(-c2c(-c3ccccc3)c(C)nc3nc(SC)nc(SC)c23)cc1OC
Given back: > 100 µM

Asked: Fill in the blank: the reported TGI of CC(=O)NC1=NC(=O)/C(=C/c2ccc(/C=C3/C(=O)N=C(NC(C)=O)N3C)cc2)N1C is ____.
Given back: > 100 µM

Asked: Report TGI for COc1ccc(NC(=O)CC(=O)n2nc(C)c(N=Nc3ccccc3C(=O)O)c2C)cc1 please.
Given back: > 100 µM
